target: recombinant PRL-2 (Homo sapiens, UniProt Q12974); construct: 6xHis (N, cleaved yes); made in house; host or cells: E. coli One Shot BL21 Star; assay: In vitro phosphatase assay (DiFMUP hydrolysis), PRL-2; assay type: biochemical; settings: FDA-approved drug screen; compared to DMSO;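 also: PRL-2 activity read as DiFMUP hydrolysis after 20 min at room temperature with drug, enzyme first pre-reduced at 4 °C for 20 min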
Counter-ions that a name gives are not always drawn.
Quantity Name: % Phosphatase Activity (compared to DMSO) PRL-2 (%)
Response body: numeric value in %, unit text excluded.

Please report % Phosphatase Activity (compared to DMSO) PRL-2 for the following compound: COC(=O)C1=C(C)NC(C)=C(C(=O)O[C@@H]2CCCN(Cc3ccccc3)C2)[C@@H]1c1cccc([N+](=O)[O-])c1.Cl (racemic) [Benidipine HCl] 107

Fill in reported % Phosphatase Activity (compared to DMSO) PRL-2 for this entry: CCCCCCCCCCCCCCCC[N+](C)(C)C.[Br-] [Cetrimonium Bromide (CTAB)] 103

Fill in % Phosphatase Activity (compared to DMSO) PRL-2 for record O=C1CC2(CCCC2)CC(=O)N1CCCCN1CCN(c2ncccn2)CC1 [Buspirone HCl] 91

Supply % Phosphatase Activity (compared to DMSO) PRL-2 value. Item: COc1c(C)c2c(c(O)c1C/C=C(\C)CCC(=O)OCCN1CCOCC1)C(=O)OC2 [Mycophenolate Mofetil] 125

Hello, please tell me recorded % Phosphatase Activity (compared to DMSO) PRL-2 for this one: CC(=O)Oc1ccccc1C(=O)Nc1ncc([N+](=O)[O-])s1 [Nitazoxanide] 76

Return value of % Phosphatase Activity (compared to DMSO) PRL-2 for input CCCNC(=O)NS(=O)(=O)c1ccc(Cl)cc1 [Chlorpropamide] , no commentary. 105

Determine from records and report % Phosphatase Activity (compared to DMSO) PRL-2 for O=C(CCCCCCNC(=O)c1cnc(N(c2ccccc2)c2ccccc2)nc1)NO 98

Provide % Phosphatase Activity (compared to DMSO) PRL-2 value for the following compound: CC(C)C[C@H](NC(=O)[C@H](CCc1ccccc1)NC(=O)CN1CCOCC1)C(=O)N[C@@H](Cc1ccccc1)C(=O)N[C@@H](CC(C)C)C(=O)[C@@]1(C)CO1 88

---

Molecular target: recombinant PRL-2 (Homo sapiens)
Construct: 6xHis (N, cleaved yes); made in house; host or cells: E. coli One Shot BL21 Star
Sequence (Q12974 1-167): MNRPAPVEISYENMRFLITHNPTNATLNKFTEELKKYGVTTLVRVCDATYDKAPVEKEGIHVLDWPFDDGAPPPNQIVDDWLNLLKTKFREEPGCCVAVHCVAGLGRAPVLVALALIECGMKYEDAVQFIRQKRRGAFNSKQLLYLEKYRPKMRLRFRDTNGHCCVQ
Assay: In vitro phosphatase assay (DiFMUP hydrolysis), PRL-2
Type: biochemical
Conditions: FDA-approved drug screen; compared to DMSO
Counter-ions that a name gives are not always drawn.
Quantity Name: % Phosphatase Activity (compared to DMSO) PRL-2 (%)
Record the value in %, omitting the unit from your answer.

Compound	Readout Value
Clc1ccc(CCC(Cn2ccnc2)Sc2c(Cl)cccc2Cl)cc1 (stereo not drawn) [Butoconazole nitrate]	109

Provide one value: measured % Phosphatase Activity (compared to DMSO) PRL-2 of C=CC(=O)Nc1cccc(Nc2nc(Nc3ccc(N4CCN(C(C)=O)CC4)cc3OC)ncc2C(F)(F)F)c1 [CO-1686 (AVL-301)] 82

# return recorded % Phosphatase Activity (compared to DMSO) PRL-2 for input CC(C)NCC(O)COc1cccc2ccccc12.Cl (stereo not drawn) [Propranolol HCl] 128

Tell us which % Phosphatase Activity (compared to DMSO) PRL-2 value is on record for CC(=O)OCC(=O)[C@@]12OC(C)(C)O[C@@H]1C[C@H]1[C@@H]3C[C@H](F)C4=CC(=O)C=C[C@]4(C)[C@@]3(F)[C@@H](O)C[C@@]12C [Fluocinonide] 92

Give a short answer stating reported % Phosphatase Activity (compared to DMSO) PRL-2 for C[C@]12CC[C@@H]3c4ccc(O)cc4CC[C@H]3[C@@H]1CC[C@@H]2O [Estradiol] . 113

Tell me % Phosphatase Activity (compared to DMSO) PRL-2 reported for Cc1nnc(SCC2=C(C(=O)O)N3C(=O)[C@@H](NC(=O)Cn4cnnn4)[C@H]3SC2)s1 [Cefazolin Sodium] 110

Identify measured % Phosphatase Activity (compared to DMSO) PRL-2 corresponding to CC(C)(C)c1nc(-c2cccc(NS(=O)(=O)c3c(F)cccc3F)c2F)c(-c2ccnc(N)n2)s1 [Dabrafenib (GSK2118436)] 82

Determine its reported % Phosphatase Activity (compared to DMSO) PRL-2: Cc1ccc(C)c(OCCCC(C)(C)C(=O)O)c1 [Gemfibrozil] 95

Assign % Phosphatase Activity (compared to DMSO) PRL-2 to the following record: Cc1cn[nH]c1 [Fomepizole] 102

Look up and state reported % Phosphatase Activity (compared to DMSO) PRL-2 for COc1c(N2C[C@@H]3CCCN[C@@H]3C2)c(F)cc2c(=O)c(C(=O)O)cn(C3CC3)c12 [Moxifloxacin HCl] 594

Indicate its recorded % Phosphatase Activity (compared to DMSO) PRL-2; the compound in question is Cc1nc(C)c(Cl)c(O)c1Cl [Clopidol] 109

Give the reported % Phosphatase Activity (compared to DMSO) PRL-2 for this compound. COc1cc(/C=C/C(=O)N2CCN(CC(=O)N3CCCC3)CC2)cc(OC)c1OC.O=C(O)/C=C\C(=O)O [Cinepazide maleate] 134

For the compound CC[C@H](C)C(=O)O[C@H]1C[C@@H](C)C=C2C=C[C@H](C)[C@H](CC[C@@H]3C[C@@H](O)CC(=O)O3)[C@H]21 [Lovastatin] , give its measured % Phosphatase Activity (compared to DMSO) PRL-2 value. 93

Identify % Phosphatase Activity (compared to DMSO) PRL-2 associated with the compound Cn1cc(CNCC2CCN(c3ncc(C(=O)NO)cn3)CC2)c2ccccc21 [Quisinostat (JNJ-26481585)] 109

Could you please provide reported % Phosphatase Activity (compared to DMSO) PRL-2 for Cl.NCC(O)c1ccc(O)cc1 (racemic) [(+,-)-Octopamine HCl] ? Thanks! 102

Determine its reported % Phosphatase Activity (compared to DMSO) PRL-2: O=c1c(-c2ccc(O)cc2)coc2cc(O)cc(O)c12 [Genistein] 100

Supply measured % Phosphatase Activity (compared to DMSO) PRL-2 of O=C1CCc2cc(OCCCCc3nnnn3C3CCCCC3)ccc2N1 [Cilostazol] in your reply. 83

Supply recorded % Phosphatase Activity (compared to DMSO) PRL-2 for N#CC[C@H](C1CCCC1)n1cc(-c2ncnc3[nH]ccc23)cn1 [Ruxolitinib (INCB018424)] here. 132

---

target: recombinant PRL-2 (Homo sapiens); construct: 6xHis (N, cleaved yes); made in house; host or cells: E. coli One Shot BL21 Star; experiment: In vitro phosphatase assay (DiFMUP hydrolysis), PRL-2; type: biochemical; conditions: FDA-approved drug screen; activity compared to DMSO
Where a name gives a salt, the structure may show the parent alone.
Quantity Name: % Phosphatase Activity (compared to DMSO) PRL-2 (%)
# unit: % | format: bare number

Take a look at these entries with their results.
Compound	Readout Value
CCCc1nn(C)c2c(=O)[nH]c(-c3cc(S(=O)(=O)N4CCN(C)CC4)ccc3OCC)nc12 [Sildenafil Citrate]	88
COc1cc2/c(=N/c3ccc(Br)cc3F)nc[nH]c2cc1OCC1CCN(C)CC1 [Vandetanib (ZD6474)]	98
Clc1ccc(C(Cn2ccnc2)OCc2csc3c(Cl)cccc23)c(Cl)c1 (stereo not shown) [Sertaconazole nitrate]	101
CN1CCC(COc2cnc(-c3cccc(Cn4nc(-c5cccc(C#N)c5)ccc4=O)c3)nc2)CC1 [Tepotinib (EMD 1214063)]	110
C=C1CC[C@H](O)C/C1=C/C=C1\CCC[C@]2(C)[C@@H]([C@H](C)/C=C/[C@H](C)C(C)C)CC[C@@H]12 [Vitamin D2]	99

Output reported % Phosphatase Activity (compared to DMSO) PRL-2 of the compound Cn1nnc(-c2ccc(-c3ccc(N4C[C@H](COP(=O)(O)O)OC4=O)cc3F)cn2)n1 [Tedizolid Phosphate] on recombinant PRL-2 (Homo sapiens). 97

Determine reported % Phosphatase Activity (compared to DMSO) PRL-2 for c1ccc2[nH]c(-c3cscn3)nc2c1 [Thiabendazole] ; test system: recombinant PRL-2 (Homo sapiens). 99

Provide % Phosphatase Activity (compared to DMSO) PRL-2, system recombinant PRL-2 (Homo sapiens), entry CN(C)CCOc1ccc(/C(=C(/CCCl)c2ccccc2)c2ccccc2)cc1 [Toremifene Citrate] 105

Name the recorded % Phosphatase Activity (compared to DMSO) PRL-2 of [H]/N=C(/N)N[C@H]1[C@H](O)[C@@H](O)[C@H](O[C@@H]2O[C@@H](C)[C@](O)(C=O)[C@H]2O[C@@H]2O[C@@H](CO)[C@H](O)[C@@H](O)[C@@H]2NC)[C@@H](N/C(N)=N\[H])[C@@H]1O [Streptomycin sulfate] , assay system recombinant PRL-2 (Homo sapiens). 89

Write down measured % Phosphatase Activity (compared to DMSO) PRL-2 (recombinant PRL-2 (Homo sapiens)) for this compound. Cl.Cl.Clc1ccc(Nc2nnc(Cc3ccncc3)c3ccccc23)cc1 [Vatalanib (PTK787) 2HCl] 96

Cited source: paper PMC8119466
